FYI, the data here is from paper PMC11019746.

Molecular target: T1, human neuropeptide Y Y2 receptor (human, UniProt P49146 1-381)
T1 construct: also called hY2R; source: CHO-hY2R cells (from PerkinElmer), intact cells
T1 sequence (looked up): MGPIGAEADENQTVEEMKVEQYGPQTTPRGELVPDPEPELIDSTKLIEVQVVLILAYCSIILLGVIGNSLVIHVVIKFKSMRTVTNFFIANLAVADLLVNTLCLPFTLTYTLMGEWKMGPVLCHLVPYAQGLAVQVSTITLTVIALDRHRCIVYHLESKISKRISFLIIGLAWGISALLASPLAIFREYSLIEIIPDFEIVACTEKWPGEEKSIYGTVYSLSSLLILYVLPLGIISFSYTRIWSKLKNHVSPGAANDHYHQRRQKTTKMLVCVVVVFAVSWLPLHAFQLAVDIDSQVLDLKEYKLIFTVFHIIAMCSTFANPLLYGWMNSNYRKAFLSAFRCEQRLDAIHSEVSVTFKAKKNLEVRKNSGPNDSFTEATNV
Test: radioligand binding; competition with [^3H]propionyl-pNPY (0.5 nM) at intact CHO-hY2R cells, 23 ± 2 °C, buffer I (sodium-free)
Details: one partner purified
Where no end group is shown, it is not given here.
Parameter: pKi

// worked examples, pKi included
RYRLRY-NH2 (also: Py-1 cyanine dye on the amine of a carbamoylated Arg in the ring, position not given here, cyclic, ring closure not given here, peptide part as in m6; structure drawn in Scheme 2; source: synthetic peptide: from precursor peptide 6 and the pyrylium dye Py-1 (14), preparative HPLC) [fluorescent ligand 18 (Py-1-labeled cyclic hexapeptide)] :: < 6
RYRLRY (not fully specified; as 11; the alkyne of the carbamoylated arginine in position 1 joined by click chemistry (triazole) to the azido-functionalized pyridinium-type cyanine dye 15 (from Py-5); C-terminal amide, peptide chain as in 11, whose linear precursor 10 is printed in three-letter code at h-0020; 19 is made from 11 and dye 15; source: synthetic peptide: from 11 and the azido-functionalized dye 15 by copper(I)-catalyzed click reaction, preparative HPLC) [fluorescent ligand 19 (Py-5-labeled cyclic hexapeptide)] :: < 6
RYRLRY-NH2 (not fully specified (bridges); also: Cy3B conjugated to the amine of the cyclic precursor peptide 6, N^ω-carbamoylated arginine in the ring, position not given here, structure drawn in Scheme 2; source: synthetic peptide: from precursor peptide 6 and Cy3B succinimidyl ester (12), preparative HPLC) [fluorescent ligand 16 (Cy3B-labeled cyclic hexapeptide)] :: < 6
RYRLRY (N^α-succinyl; N^ω-[hex-5-ynylaminocarbonyl]-Arg at position 1; N^ω-[(aminobutyl)aminocarbonyl]-Arg at position 3; cyclized via the succinyl carboxylic group and the primary amino group of the carbamoylated arginine in position 3; C-terminal amide, printed in three-letter code for the linear precursor 10: N^α-succinyl-N^ω[hex-5-ynylaminocarbonyl]-Arg-Tyr-N^ω-[(aminobutyl)aminocarbonyl]Arg-Leu-Arg-Tyr-amide; 11 is its cyclized form; source: synthetic peptide (SPPS of linear peptide 10, cyclization in solution, preparative HPLC)) [cyclic peptide 11 (alkyne-functionalized precursor peptide)] :: < 5

Query :: Quick check: pKi of RYRLRY-NH2 (also: Sulfo-Cy5 (S0223) conjugated to the amine of the cyclic precursor peptide 6, N^ω-carbamoylated arginine in the ring, position not given here, peptide part as in m6; structure drawn in Scheme 2; source: synthetic peptide: from precursor peptide 6 and the succinimidyl ester 13 (S0586) of Sulfo-Cy5 (S0223), preparative HPLC) [fluorescent ligand 17 (Sulfo-Cy5-labeled cyclic hexapeptide)] ?
Result :: < 6
